System: Plutella xylostella
Test: Action on Diamond Back Moth (Plutella xylostella), cabbage leaf dip, 3rd instar larvae
Assay type: in vivo
Details: 300 ppm; 3rd instar larvae; 72 hours after treatment
resultType: mortality in comparison with untreated controls

[[record]]
testsmiles = "CSc1ccc(C(=O)Nc2cn(-c3ccc(NC(=O)N=C4SCC(=O)N4c4cc(C)ccc4C(C)C)cc3)nc2C)cc1"
reportedresult = "at least 75%"

[[record]]
testsmiles = "Cc1ccc(C(C)C)c(N2C(=O)CSC2=NC(=O)Nc2ccc(-n3cc(NC(=O)c4ccc(C5(F)CC5)cc4)c(C)n3)cc2)c1"
reportedresult = "at least 75%"

[[record]]
testsmiles = "Cc1ccc(C(C)C)c(N2C(=O)CSC2=NC(=O)Nc2ccc(-n3cc(NC(=O)c4ccncc4)c(C)n3)cc2)c1"
reportedresult = "at least 75%"


###

Test system: Heliothis virescens
Assay: Action on Tobacco Budworm (Heliothis virescens)
Assay type: in vivo
Conditions: 800 ppm; egg and larval mortality; 5 days
resultType: mortality in comparison with untreated controls

[[record]]
testsmiles = "Cc1ccc(C(C)C)c(N2C(=O)CS/C2=N\\C(=O)Nc2ccc(-n3cc(NC(=O)c4ccc(Cl)cc4Cl)c(C)n3)cc2)c1"
reportedresult = "at least 75%"

[[record]]
testsmiles = "Cc1ccc(C(C)C)c(N2C(=O)CSC2=NC(=O)Nc2ccc(-n3cc(NC(=O)c4ccc(S(C)(=O)=O)c(F)c4)c(C)n3)cc2)c1"
reportedresult = "at least 75%"

[[record]]
testsmiles = "C#Cc1ccc(C(=O)Nc2cn(-c3ccc(NC(=O)/N=C4\\SCC(=O)N4c4cc(C)ccc4C(C)C)cc3)nc2C)cc1"
reportedresult = "at least 75%"


###

Test system: Spodoptera eridania
Assay: Action on Southern Armyworm (Spodoptera eridania), 2nd Instar Larvae
Type: in vivo
Conditions: 300 ppm; 2nd instar larvae; 4 days after treatment
resultType: mortality in comparison with untreated controls

[[record]]
testsmiles = "Cc1ccc(C(C)C)c(N2C(=O)CS/C2=N\\C(=O)Nc2ccc(-n3cc(NC(=O)c4ccc(OC(F)(F)F)cc4)c(C)n3)cc2C#N)c1"
testedon = "Spodoptera eridania"
reportedresult = "at least 75%"

[[record]]
testsmiles = "Cc1ccc(C(C)C)c(N2C(=O)CS/C2=N\\C(=O)Nc2ccc(-n3cc(NC(=O)c4ccc(C#N)cc4)c(C)n3)cc2)c1"
testedon = "Spodoptera eridania"
reportedresult = "at least 75%"

[[record]]
testsmiles = "Cc1ccc(C(C)C)c(NC(=S)NC(=O)Nc2ccc(-n3cc(NC(=O)c4ccc(OC(F)(F)F)cc4)c(C)n3)cc2)c1"
testedon = "Spodoptera eridania"
reportedresult = "at least 75%"


###

System: Spodoptera eridania
Test: Action on Southern Armyworm (Spodoptera eridania), 2nd Instar Larvae
Format: in vivo
Conditions: 300 ppm; 2nd instar larvae; 4 days after treatment
resultType: mortality in comparison with untreated controls

Known results for molecules:
[[record]]
testsmiles = "Cc1ccc(C(C)C)c(N2C(=O)CS/C2=N\\C(=O)Nc2ccc(-n3nc(C)c(NC(=O)c4ccc(Cl)c(Cl)c4)c3C)cc2Cl)c1"
reportedresult = "at least 75%"

[[record]]
testsmiles = "Cc1ccc(C(C)C)c(N2C(=O)CSC2=NC(=O)Nc2ccc(-n3nc(C)c(NC(=O)c4cc(F)c(F)cc4F)c3C)cc2)c1"
reportedresult = "at least 75%"

[[record]]
testsmiles = "Cc1ccc(C(C)C)c(N2C(=O)CSC2=NC(=O)Nc2ccc(-n3cc(NC(=O)c4csc(Cl)c4)c(C)n3)cc2)c1"
reportedresult = "at least 75%"

[[record]]
testsmiles = "Cc1ccc(C(C)C)c(N2C(=O)CSC2=NC(=O)Nc2ccc(-n3nc(C)c(NC(=O)c4ccc(Br)c(C#N)c4)c3C)cc2)c1"
reportedresult = "at least 75%"

[[record]]
testsmiles = "Cc1ccc(C(C)C)c(N2C(=O)CSC2=NC(=O)Nc2ccc(-n3cc(NC(=O)c4ccc(C(C)(C)C#N)cc4)c(C)n3)cc2)c1"
reportedresult = "at least 75%"


[Q] # return recorded mortality in comparison with untreated controls for input Cc1ccc(C(C)C)c(N2C(=O)CS/C2=N\C(=O)Nc2ccc(-n3nc(C)c(NC(=O)c4ccc(OC(F)(F)F)c(F)c4)c3C)c(F)c2)c1
[A] at least 75%

###

Test system: Plutella xylostella
Test: Action on Diamond Back Moth (Plutella xylostella), microtiter plates, insect diet, eggs
Type: in vivo
Settings: 800 ppm; egg and larval mortality; 5 days
resultType: mortality in comparison with untreated controls

[[record]]
testsmiles = "Cc1ccc(C(C)C)c(N2C(=O)CSC2=NC(=O)Nc2ccc(-n3cc(NC(=O)c4ccc(N=S(C)(C)=O)cc4)c(C)n3)cc2)c1"
testedon = "Plutella xylostella"
reportedresult = "at least 75%"

[[record]]
testsmiles = "Cc1ccc(C(C)C)c(N2C(=O)CSC2=NC(=O)Nc2ccc(-n3nc(C)c(NC(=O)c4ccc(Cl)c(F)c4)c3C)cc2)c1"
testedon = "Plutella xylostella"
reportedresult = "at least 75%"

[[record]]
testsmiles = "Cc1ccc(C(C)C)c(N/C(=N/C(=O)Nc2ccc(-n3nc(C)c(NC(=O)c4ccc(OC(F)(F)F)cc4)c3C)cc2Cl)SCOC(=O)C(C)C)c1"
testedon = "Plutella xylostella"
reportedresult = "at least 75%"


###

System: Anthonomus grandis
Assay: Action on Boll Weevil (Anthonomus grandis)
Format: in vivo
Conditions: 800 ppm; egg and larval mortality; 5 days
resultType: mortality in comparison with untreated controls

[[record]]
compound = "Cc1ccc(C(C)C)c(N2C(=O)CS/C2=N\\C(=O)Nc2cc(Cl)c(-n3nc(C)c(NC(=O)c4ccc(OC(F)(F)F)cc4)c3C)cc2C)c1"
testedon = "Anthonomus grandis"
reportedresult = "at least 75%"

[[record]]
compound = "Cc1ccc(C(C)C)c(N2C(=O)CSC2=NC(=O)Nc2ccc(-n3cc(NC(=O)c4ccc(C#N)nc4)c(C)n3)cc2)c1"
testedon = "Anthonomus grandis"
reportedresult = "at least 75%"

[[record]]
compound = "Cc1nn(-c2ccc(NC(=O)N=C3SCC(=O)N3c3ccccc3C(C)C)cc2)cc1NC(=O)c1ccc(OC(F)(F)F)cc1"
testedon = "Anthonomus grandis"
reportedresult = "at least 75%"

[[record]]
compound = "Cc1ccc(C(C)C)c(N2C(=O)CSC2=NC(=O)Nc2ccc(-n3nc(C)c(NC(=O)c4cc(F)c(F)cc4F)c3C)cc2)c1"
testedon = "Anthonomus grandis"
reportedresult = "at least 75%"


I'm hoping you can list mortality in comparison with untreated controls for every compound here, please.
1. Cc1ccc(C(C)C)c(N2C(=O)CSC2=NC(=O)Nc2ccc(-n3cc(NC(=O)c4ccc(N=S(C)(C)=O)cc4)c(C)n3)cc2)c1
2. Cc1ccc(C(C)C)c(N2C(=O)CS/C2=N\C(=O)Nc2ccc(-n3cc(NC(=O)c4ccc(CBr)cc4)c(C)n3)cc2)c1
3. Cc1ccc(C(C)C)c(N2C(=O)CSC2=NC(=O)Nc2ccc(-n3cc(NC(=O)c4ccc(S(C)(=O)=O)cc4F)c(C)n3)cc2)c1
4. Cc1ccc(C(C)C)c(N2C(=O)CSC2=NC(=O)Nc2ccc(-n3cc(NC(=O)c4ccc(N(C)C)cc4)c(C)n3)cc2)c1
5. Cc1ccc(C(C)C)c(N2C(=O)CSC2=NC(=O)Nc2ccc(-n3cc(NC(=O)c4ccc(C5CC5(F)F)cc4)c(C)n3)cc2)c1 (racemic)
6. Cc1ccc(C(C)C)c(N2C(=O)CS/C2=N\C(=O)Nc2ccc(-n3nc(C)c(NC(=O)c4ccc(OC(F)(F)F)cc4)c3C)cc2Br)c1
7. Cc1ccc(C(C)C)c(N2C(=O)CSC2=NC(=O)Nc2ccc(-n3cc(NC(=O)c4ccc(S(=O)(=O)C(F)(F)F)cc4)c(C)n3)cc2)c1

[A]
["at least 75%", "at least 75%", "at least 75%", "at least 75%", "at least 75%", "at least 75%", "at least 75%"]

[Q] # return recorded mortality in comparison with untreated controls for input Cc1ccc(C(C)C)c(N2C(=O)CSC2=NC(=O)Nc2ccc(-n3cc(NC(=O)c4ccc([N+](=O)[O-])cc4)c(C)n3)cc2)c1
[A] at least 75%

###

System: Spodoptera eridania
Experiment: Action on Southern Armyworm (Spodoptera eridania), 2nd Instar Larvae
Type: in vivo
Conditions: 300 ppm; 2nd instar larvae; 4 days after treatment
resultType: mortality in comparison with untreated controls

[[record]]
testsmiles = "Cc1nn(-c2ccc(NC(=O)/N=C3\\SCC(=O)N3c3cc(C4CC4)ccc3C(C)C)c(F)c2)cc1NC(=O)c1ccc(OC(F)(F)F)cc1"
reportedresult = "at least 75%"

[[record]]
testsmiles = "Cc1ccc(C(C)C)c(N2C(=O)CS/C2=N\\C(=O)Nc2ccc(-n3nc(C)c(NC(=O)c4ccc(OC(F)(F)F)cc4)c3C)cc2C2CC2)c1"
reportedresult = "at least 75%"

[[record]]
testsmiles = "Cc1ccc(C(C)C)c(N2C(=O)CS/C2=N\\C(=O)Nc2ccc(-n3cc(NC(=O)c4ccc(C#N)cc4Cl)c(C)n3)cc2)c1"
reportedresult = "at least 75%"

